# target_entity: Concanavalin-A (Canavalia ensiformis)
# protocol_text: ConA small-molecule binders, primary screen, artefact control for SMM control protein annotation, biochemical, small-molecule microarray, Alexa647 label, 635 nm (AID 1127);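 further: z combines 667 nm emission intensity with signal-to-noise across three replicate slides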
# experimental_conditions: ConA-A647 binding fluorescence, higher = more signal
Consider the following compounds; for each one, report its composite z-score.
# output: bare number, no unit

[Q] Report composite z-score, nothing else, for this compound: COc1ccc([Si](C)(C)[C@H]2[C@H](CCO)O[C@@]3(C(=O)N(Cc4ccccc4)c4ccc(NC(=O)[C@H](C)O)cc43)[C@@H]2C)cc1
[A] 0.473

[Q] Report composite z-score, nothing else, for this compound: Cc1ccc(S(=O)(=O)N2[C@@H](c3ccccc3)C(C(=O)O)=C[C@H]2C(C)(C)C)cc1
[A] 1.17

[Q] Report composite z-score, nothing else, for this compound: C=CC[C@H](O)c1ccc(O)c(F)c1
[A] -1.09

[Q] Report composite z-score, nothing else, for this compound: CS(=O)(=O)CCOC(=O)C1=CC(CCCO)=CC(C2CC2)N(Cc2sc3ccccc3c2Cl)C=C1C(=O)OCCS(C)(=O)=O (centres undefined)
[A] 0.648

====

Consider the following compounds; for each one, report its z-score.
# protocol_text: P. aeruginosa biofilm formation inhibitors, primary screen, strain PAO1, LB-PBS medium, absorbance 600 nm (AID 1176); further: test concentration not given here
# experimental_conditions: P. aeruginosa PAO1 growth/biofilm, A600, 12 h; higher = more signal
# output: bare number, no unit

[Q] Report z-score, nothing else, for this compound: [N-]=[N+]=Nc1ccccc1C[C@@]1(C(=O)NCC(O)CO)N=C(c2ccc(OCCCO)cc2)O[C@@H]1c1ccccc1N=[N+]=[N-] (stereo not given in full)
[A] 0.122

[Q] Report z-score, nothing else, for this compound: CC1C2C(CCCO)=CC(C3C(=O)N(C)C(=O)C23)N1Cc1cccc(OC(F)(F)F)c1 (stereo not given)
[A] -0.0099

[Q] Report z-score, nothing else, for this compound: COC(=O)C(CC#Cc1ccc2c(c1)[C@]1(C(=O)N2)[C@H](C(=O)NC[C@H](O)c2ccccc2)[C@H]2C(=O)O[C@H](c3ccccc3)[C@H](c3ccccc3)N2[C@@H]1c1ccc(O)cc1)C(=O)OC
[A] 1.05

[Q] Report z-score, nothing else, for this compound: C=C[C@H](C)[C@@H](OC(=O)Nc1ccc(SC)cc1)c1ccc(OCCO)cc1
[A] 0.696

[Q] Report z-score, nothing else, for this compound: Cc1cccc([C@H]2C[C@H]3C(Br)=C[C@@]2(CO)C(=O)[C@]32CO2)c1
[A] 0.343

[Q] Report z-score, nothing else, for this compound: CN1C(=O)C2C=CC(C(O)COCc3ccccc3)N(Nc3ccc([N+](=O)[O-])cc3[N+](=O)[O-])C2C1=O (stereo not given)
[A] 0.558

[Q] Report z-score, nothing else, for this compound: CO[C@H]1O[C@H](CO)[C@@H](OC(=O)CCc2ccccc2)[C@@H]2OC(=O)[C@@H](Cc3ccc4ccccc4c3)C/C=C/C[C@H](Cc3ccc4ccccc4c3)C(=O)O[C@@H]12
[A] -0.0558

[Q] Report z-score, nothing else, for this compound: C=CCNC(=O)[C@@H]1[C@H]2C(=O)O[C@H](c3ccccc3)[C@H](c3ccccc3)N2[C@H](c2ccc(OCCO)cc2)[C@@]12C(=O)Nc1ccc(C#CC3=CCCCC3)cc12
[A] 2.29

[Q] Report z-score, nothing else, for this compound: Cc1ccc(S[C@]2(C(=O)NCCN3CCOCC3)CC(=O)N(C(C)C)[C@@H]2c2ccc(CO)cc2I)cc1
[A] 0.553

[Q] Report z-score, nothing else, for this compound: O=C1O[C@H](c2ccccc2)[C@H](c2ccccc2)N2[C@H]1[C@@H](C(=O)O)[C@]1(C(=O)Nc3ccc(C#CC4(O)CCCCCC4)cc31)[C@H]2c1ccccc1OCCO
[A] -0.645

[Q] Report z-score, nothing else, for this compound: [N-]=[N+]=NCc1ccccc1[C@H]1OC(c2ccc(OCCCO)cc2)=N[C@@]1(Cc1ccccc1N=[N+]=[N-])C(=O)N1CCOCC1
[A] 0.438

[Q] Report z-score, nothing else, for this compound: CC(C)Cc1ccc(CN2CC[C@@H](NC(=O)c3ccccc3)C2)cc1
[A] -0.0248

[Q] Report z-score, nothing else, for this compound: COC(=O)c1c2oc(c1C(=O)OC)C(=O)N[C@H](Cc1ccccc1)Cn1cc(nn1)C1(CCCCC1)NC(=O)N[C@H](CO)CC2
[A] 0.772

[Q] Report z-score, nothing else, for this compound: [N-]=[N+]=Nc1ccccc1C[C@@]1(C(=O)NCc2ccccc2)N=C(c2ccc(OCCCO)cc2)O[C@@H]1c1ccccc1
[A] 2.51

[Q] Report z-score, nothing else, for this compound: COc1ccc(CCNC(=O)[C@@H]2c3ccccc3C(=O)N(C(C)C)[C@H]2c2ccc(CO)cc2)cc1
[A] -0.935
